Values compiled from ChEMBL document CHEMBL4002576.

- TARGET_SYSTEM: Cholinesterase (Equus caballus, UniProt P81908)
- Sequence (P81908 whole entry): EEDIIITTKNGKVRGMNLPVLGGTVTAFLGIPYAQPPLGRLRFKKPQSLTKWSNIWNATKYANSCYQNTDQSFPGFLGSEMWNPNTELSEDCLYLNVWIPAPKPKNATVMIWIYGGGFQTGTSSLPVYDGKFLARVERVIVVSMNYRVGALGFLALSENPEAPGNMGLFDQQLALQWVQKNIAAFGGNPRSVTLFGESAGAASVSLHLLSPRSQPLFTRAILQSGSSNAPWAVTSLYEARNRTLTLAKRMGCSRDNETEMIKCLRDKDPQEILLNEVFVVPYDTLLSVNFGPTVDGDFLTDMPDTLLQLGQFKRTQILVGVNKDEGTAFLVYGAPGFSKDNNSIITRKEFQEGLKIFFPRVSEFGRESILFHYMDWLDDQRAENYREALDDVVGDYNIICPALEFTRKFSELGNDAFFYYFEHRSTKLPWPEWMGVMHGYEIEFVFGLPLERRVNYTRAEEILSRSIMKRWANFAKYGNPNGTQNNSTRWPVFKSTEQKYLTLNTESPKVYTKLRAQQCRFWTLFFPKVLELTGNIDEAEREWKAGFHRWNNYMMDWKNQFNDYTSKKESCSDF
- MEASUREMENT_DESCRIPTION: Inhibition of horse serum BuChE using butyrylthiocholine as substrate pretreated for 10 mins followed by substrate addition measured after 15 mins by spectrophotometry based Ellman method
- SETTINGS: read-out: IC50
pIC50: −log10 of the molar value.
PARAMETER_MEASURED: pIC50

INSERT INTO results (molecule, target_system, recorded_number) VALUES
  ('Cc1ccc(C2c3ccc4cccnc4c3Oc3nc4c(c(N)c32)CCCC4)cc1 (stereo not drawn)', 'Cholinesterase (Equus caballus, UniProt P81908)', 6.28),
  ('COc1ccc(C2c3ccc4cccnc4c3Oc3nc4c(c(N)c32)CCCC4)cc1 (stereo not drawn)', 'Cholinesterase (Equus caballus, UniProt P81908)', 5.89),
  ('Nc1c2c(nc3c1C(c1ccccc1F)c1ccc4cccnc4c1O3)CCCC2 (stereo not drawn)', 'Cholinesterase (Equus caballus, UniProt P81908)', 6.20),
  ('Nc1c2c(nc3c1C(c1ccccc1)c1ccc4cccnc4c1O3)CCCC2 (stereo not drawn)', 'Cholinesterase (Equus caballus, UniProt P81908)', 5.95),
  ('COc1cccc(C2c3ccc4cccnc4c3Oc3nc4c(c(N)c32)CCCC4)c1 (stereo not drawn)', 'Cholinesterase (Equus caballus, UniProt P81908)', 5.89),
  ('Nc1c2c(nc3c1C(c1cccnc1Br)c1ccc4cccnc4c1O3)CCCC2 (stereo not drawn)', 'Cholinesterase (Equus caballus, UniProt P81908)', 5.54),
  ('Nc1c2c(nc3c1C(c1ccccc1Br)c1ccc4cccnc4c1O3)CCCC2 (stereo not drawn)', 'Cholinesterase (Equus caballus, UniProt P81908)', 6.68),
  ('COc1ccccc1C1c2ccc3cccnc3c2Oc2nc3c(c(N)c21)CCCC3 (stereo not drawn)', 'Cholinesterase (Equus caballus, UniProt P81908)', 5.82);
